Origin of measurements: patent US10961215B2

test_system: GST tagged LXRalpha LBD (ligand binding domain) (Homo sapiens, UniProt Q13133)
Sequence (Q13133 209-447 limits assumed): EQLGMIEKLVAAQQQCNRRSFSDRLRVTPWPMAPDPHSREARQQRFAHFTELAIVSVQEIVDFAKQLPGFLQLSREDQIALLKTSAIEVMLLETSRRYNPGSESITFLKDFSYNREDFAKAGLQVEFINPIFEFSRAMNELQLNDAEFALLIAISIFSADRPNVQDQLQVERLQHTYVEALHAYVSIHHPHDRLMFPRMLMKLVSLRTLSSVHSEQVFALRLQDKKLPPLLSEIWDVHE
test_method_notes: LanthaScreen TR-FRET Liver X Receptor Coactivator Assay, LXR alpha-LBD (co-activator recruitment; IP and % Emax relative to T0901317)
experimental_context: Inflection Point of co-activator recruitment, LXR alpha-LBD, TR-FRET
test_readout: EC50 (nM)
Numbers only, in nM.

Example results:
[[record]]
compound = "CNC(=O)c1ccc(N2CCC([C@H]3C[C@H]3CNC(=O)[C@](O)(c3ccccc3)C(F)(F)F)CC2)nc1Cl"
test_readout = "EC50"
unit_symbol = "nM"
value_observed = 3780

[[record]]
compound = "CN(C)C(=O)c1ccc(N2CCC3(CC2)C[C@@H]3CCN(C)C(=O)[C@](O)(c2ccccc2)C(F)(F)F)cc1Cl"
test_readout = "EC50"
unit_symbol = "nM"
value_observed = 381


I have 3 compounds here; please give me EC50 for each one.
1. CN(C)C(=O)c1ccc(N2CCC(C)(CCCN(C)C(=O)[C@]3(c4ccccc4)CCCO3)CC2)nc1Cl
2. CN(C)C(=O)c1ccc(N2CCC([C@H]3C[C@H]3CN(C)C(=O)[C@](O)(c3cccc(OC(F)(F)F)c3)C(F)(F)F)CC2)nc1Cl
3. CN(C)C(=O)c1ccc(N2CCC([C@@H]3C[C@H]3CN(C)C(=O)[C@](O)(c3ccccc3)C(F)(F)F)CC2)nc1Cl

[reply]
1: 198; 2: 623; 3: 6070

I have 3 compounds here; please give me EC50 for each one.
1. CN(C)C(=O)c1ccc(N2CCC([C@H]3C[C@H]3CN(C)C(=O)[C@](O)(c3ccccc3)C(F)(F)F)CC2)nc1Cl
2. CN(CC[C@H]1CC12CCN(c1ccc(C(=O)NC3CC3)c(Cl)c1)CC2)C(=O)[C@](O)(c1ccccc1)C(F)(F)F
3. CN(C)C(=O)c1ccc(N2CCC(CCCN(C)C(=O)[C@](O)(c3cc(F)cc(Cl)c3)C(F)(F)F)CC2)nc1Cl

[reply]
289
1150
372

I have 2 compounds here; please give me EC50 for each one.
1. CN(C)C(=O)c1ccc(N2CCC(CCCNC(=O)[C@](O)(c3ccccc3)C(F)(F)F)CC2)nc1Cl
2. COc1cccc([C@@](O)(C(=O)N[C@H](C)CCC2CCN(c3ccc(C(=O)N(C)C)c(Cl)n3)CC2)C(F)(F)F)c1

[reply]
[5140, 2440]

I have 7 compounds here; please give me EC50 for each one.
1. CNC(=O)c1ccc(N2CCC(CC3CC(NC(=O)[C@](O)(c4ccccc4)C(F)(F)F)C3)CC2)cc1Cl (stereo partly drawn)
2. CN(C)C(=O)c1ccc(N2CCC(CCCN(C)C(=O)C(O)(c3cccc(O)c3)C(F)(F)F)CC2)nc1Cl (stereo not drawn)
3. CN(C)C(=O)c1ccc(N2CCC(CCCNC(=O)C3(c4ccccc4)CCCC3)CC2)nc1Cl
4. CN(C)C(=O)c1ccc(N2CCC(CCCN(C)C(=O)[C@@]3(C(F)(F)F)CCCO3)CC2)nc1Cl
5. CN(CC[C@@H]1CC12CCN(c1ccc(C(=O)NC3CC3)c(Cl)c1)CC2)C(=O)[C@](O)(c1ccccc1)C(F)(F)F
6. CN(C)C(=O)c1ccc(N2CCC(CC3CC(NC(=O)[C@](O)(c4ccccc4)C(F)(F)F)C3)CC2)nc1Cl (stereo partly drawn)
7. CN(C)C(=O)c1ccc(N2CCC(CCCNC(=O)C3(c4ccccc4)CCC3)CC2)nc1Cl

[reply]
6010
2510
2730
2520
6100
2390
5220

I have 7 compounds here; please give me EC50 for each one.
1. COc1cccc([C@@](O)(C(=O)N(C)CCCC2CCN(c3cc(Cl)c(C(=O)N(C)C)cn3)CC2)C(F)(F)F)c1
2. CN(C)C(=O)c1ccc(N2CCC(CCCNC(=O)[C@](O)(c3cccc(OC(F)(F)F)c3)C(F)(F)F)CC2)nc1Cl
3. COc1cccc([C@@](O)(C(=O)N(C)CC[C@H]2CC23CCN(c2ccc(C(=O)NC4CC4)c(Cl)c2)CC3)C(F)(F)F)c1
4. CN(C)C(=O)c1ccc(N2CCC(C)(CCCN(C)C(=O)[C@](O)(c3ccccc3)C(F)(F)F)CC2)cc1Cl
5. CC(C)[C@](O)(C(=O)N(C)CCCC1CCN(c2ccc(C(=O)N(C)C)c(Cl)n2)CC1)C(F)(F)F
6. CN(C)C(=O)c1ccc(N2CCC(CCCNC(=O)C(O)(c3ccccc3)C(F)(F)F)CC2)cc1Cl (stereo not drawn)
7. CC(C)N(C)C(=O)c1ccc(N2CCC3(CC2)C[C@@H]3CCN(C)C(=O)[C@](O)(c2ccccc2)C(F)(F)F)cc1Cl

[reply]
1: 5940; 2: 13200; 3: 775; 4: 921; 5: 1180; 6: 3510; 7: 158

I have 3 compounds here; please give me EC50 for each one.
1. CC(C)C(O)(C(=O)N(C)CCCC1CCN(c2ccc(C(=O)N(C)C)c(Cl)c2)CC1)C(F)(F)F (stereo not drawn)
2. CN(C)C(=O)c1ccc(N2CCC3(CC2)CC3CCN(C)C(=O)[C@](O)(c2ccccc2)C(F)(F)F)cc1Cl (stereo partly drawn)
3. COc1cccc([C@@](O)(C(=O)N(C)CCCC2CCN(c3ccc(C(=O)N4CC[C@H](CO)C4)c(Cl)n3)CC2)C(F)(F)F)c1

[reply]
[3350, 534, 690]
